protocol.text: Selectivity index, ratio of CC50 for mouse TAMH cells to IC50 for human KMS-12-BM cells
Format: toxicity
stated.conditions: TAMH cells (CC50) and KMS-12-BM cells (IC50)
Sorting guide: entries reporting selectivity ratio beneath 20 go in the met pile, the rest go in the not met pile.

A selection of reference data follows.
input.smiles | group.label
CC(=O)Nc1ccc(-c2nc(Nc3cccc(OCCCCCCCC(=O)NO)c3)ncc2C)cc1 | met
CC(=O)Nc1ccc(-c2ccnc(Nc3cccc(OCCCCCCCC(=O)NO)c3)n2)cc1 | met

**Query** Below 20 on selectivity ratio? Entry `CC(=O)Nc1ccc(-c2ccnc(Nc3ccc(OCCCCCCC(=O)NO)cc3)n2)cc1`
**Result** not met

**Query** Below 20 on selectivity ratio? Entry `CC(=O)Nc1ccc(-c2ccnc(Nc3cccc(OCCCCCC(=O)NO)c3)n2)cc1`
**Result** not met

**Query** Below 20 on selectivity ratio? Entry `CC(=O)Nc1ccc(-c2ccnc(Nc3ccc(NC(=O)CCCCCCC(=O)NO)cc3)n2)cc1`
**Result** met

###

target.entity: Tyrosine-protein kinase JAK2 (Homo sapiens, UniProt O60674)
Sequence (O60674 whole entry): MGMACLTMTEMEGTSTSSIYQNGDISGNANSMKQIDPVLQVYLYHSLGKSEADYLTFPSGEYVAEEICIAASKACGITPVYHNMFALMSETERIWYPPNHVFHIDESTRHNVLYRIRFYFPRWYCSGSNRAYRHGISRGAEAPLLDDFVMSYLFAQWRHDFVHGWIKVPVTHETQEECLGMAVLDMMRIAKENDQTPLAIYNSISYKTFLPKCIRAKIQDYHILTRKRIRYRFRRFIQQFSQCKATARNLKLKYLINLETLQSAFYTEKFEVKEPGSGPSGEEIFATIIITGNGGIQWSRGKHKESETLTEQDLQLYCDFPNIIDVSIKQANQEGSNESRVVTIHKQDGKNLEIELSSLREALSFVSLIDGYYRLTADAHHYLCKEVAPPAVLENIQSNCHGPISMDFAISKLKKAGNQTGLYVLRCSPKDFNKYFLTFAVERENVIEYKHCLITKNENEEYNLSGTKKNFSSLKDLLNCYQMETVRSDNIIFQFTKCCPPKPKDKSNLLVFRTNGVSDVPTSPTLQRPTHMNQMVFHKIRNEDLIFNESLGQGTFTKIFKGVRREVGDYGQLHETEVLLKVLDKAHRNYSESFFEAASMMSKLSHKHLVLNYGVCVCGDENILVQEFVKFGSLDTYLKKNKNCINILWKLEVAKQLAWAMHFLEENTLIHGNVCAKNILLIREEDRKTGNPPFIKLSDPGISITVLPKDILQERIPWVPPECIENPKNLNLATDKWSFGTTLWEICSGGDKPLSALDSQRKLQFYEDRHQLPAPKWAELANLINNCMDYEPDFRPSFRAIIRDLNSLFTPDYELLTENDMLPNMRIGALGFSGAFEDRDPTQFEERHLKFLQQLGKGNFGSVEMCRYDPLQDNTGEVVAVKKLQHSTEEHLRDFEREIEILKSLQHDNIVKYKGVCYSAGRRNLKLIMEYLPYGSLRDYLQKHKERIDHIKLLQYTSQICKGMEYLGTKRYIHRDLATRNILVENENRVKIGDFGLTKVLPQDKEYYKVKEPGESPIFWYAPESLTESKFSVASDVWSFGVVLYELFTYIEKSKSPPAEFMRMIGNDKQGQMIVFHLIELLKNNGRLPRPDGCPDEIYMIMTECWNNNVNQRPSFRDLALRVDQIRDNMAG
measured.parameter: log10(IC50) (log10 of the value in nM)
// stored as log10 of IC50 expressed in nM

Consider the reported log10(IC50) for these compounds:
input.smiles | log10(IC50)
CC(=O)Nc1ccc(-c2ccnc(Nc3ccc(NC(=O)CCCCC(=O)NO)cc3)n2)cc1 | 1.77
CN1CCN(CC(=O)Nc2ccc(-c3ccnc(Nc4cccc(OCCCCCCC(=O)NO)c4)n3)cc2)CC1 | 2.04

**Query** State the measured log10(IC50) (Tyrosine-protein kinase JAK2 (Homo sapiens, UniProt O60674)) of `CC(=O)Nc1ccc(-c2ccnc(Nc3cccc(N4CCCCC4)c3)n2)cc1`
**Result** 1.14

**Query** State the measured log10(IC50) (Tyrosine-protein kinase JAK2 (Homo sapiens, UniProt O60674)) of `CC(=O)Nc1ccc(-c2ccnc(Nc3ccc(OCCCCCCC(=O)NO)cc3)n2)cc1`
**Result** 1.36

**Query** State the measured log10(IC50) (Tyrosine-protein kinase JAK2 (Homo sapiens, UniProt O60674)) of `CN1CCN(CC(=O)Nc2ccc(-c3ccnc(Nc4ccc(OCCCCCCC(=O)NO)cc4)n3)cc2)CC1`
**Result** 1.98

**Query** State the measured log10(IC50) (Tyrosine-protein kinase JAK2 (Homo sapiens, UniProt O60674)) of `CC(=O)Nc1ccc(-c2ccnc(Nc3cccc(OCCCCCCCC(=O)NO)c3)n2)cc1`
**Result** 1.23

**Query** State the measured log10(IC50) (Tyrosine-protein kinase JAK2 (Homo sapiens, UniProt O60674)) of `O=C(CCCCCCC(=O)Nc1ccc(-c2ccnc(Nc3ccc(N4CCOCC4)cc3)n2)cc1)NO`
**Result** 0.49

**Query** State the measured log10(IC50) (Tyrosine-protein kinase JAK2 (Homo sapiens, UniProt O60674)) of `CC(=O)Nc1ccc(-c2ccnc(Nc3cccc(OCCCCCCC(=O)NO)c3)n2)cc1`
**Result** 0.56

**Query** State the measured log10(IC50) (Tyrosine-protein kinase JAK2 (Homo sapiens, UniProt O60674)) of `O=C(CCCCCCC(=O)Nc1ccc(-c2ccnc(Nc3cccc(N4CCCCC4)c3)n2)cc1)NO`
**Result** 0.82

**Query** State the measured log10(IC50) (Tyrosine-protein kinase JAK2 (Homo sapiens, UniProt O60674)) of `CC(=O)Nc1ccc(-c2nc(Nc3cccc(OCCCCCCCC(=O)NO)c3)ncc2C)cc1`
**Result** 0.47

###

Listed here are compounds together with their documented selectivity ratio.
protocol.text: Selectivity index, ratio of CC50 for mouse TAMH cells to IC50 for human Jurkat cells
Type: toxicity
stated.conditions: TAMH cells (CC50) and Jurkat cells (IC50)

input.smiles | selectivity ratio
CC(=O)Nc1ccc(-c2ccnc(Nc3cccc(OCCCCCCC(=O)NO)c3)n2)cc1 | 6.65
CC(=O)Nc1ccc(-c2ccnc(Nc3ccc(OCCCCCCC(=O)NO)cc3)n2)cc1 | 2.07
CC(=O)Nc1ccc(-c2nc(Nc3cccc(OCCCCCCCC(=O)NO)c3)ncc2C)cc1 | 0.91
CC(=O)Nc1ccc(-c2ccnc(Nc3cccc(OCCCCCCCC(=O)NO)c3)n2)cc1 | < 0.28

**Query** Provide only the value of recorded selectivity ratio for `CC(=O)Nc1ccc(-c2ccnc(Nc3cccc(OCCCCCC(=O)NO)c3)n2)cc1`
**Result** 7.45

###

Listed here are compounds together with their documented selectivity ratio.
protocol.text: Selectivity index, ratio of CC50 for mouse TAMH cells to IC50 for human HCT116 cells
Type: toxicity
stated.conditions: TAMH cells (CC50) and HCT116 cells (IC50)
Lab note: record the figure alone, no unit after it.

input.smiles | numeric.readout
CC(=O)Nc1ccc(-c2ccnc(Nc3ccc(OCCCCCCC(=O)NO)cc3)n2)cc1 | 3.7
CC(=O)Nc1ccc(-c2ccnc(Nc3cccc(OCCCCCCCC(=O)NO)c3)n2)cc1 | 1.83
CC(=O)Nc1ccc(-c2nc(Nc3cccc(OCCCCCCC(=O)NO)c3)ncc2C)cc1 | 3.31
CN1CCN(CC(=O)Nc2ccc(-c3ccnc(Nc4cccc(OCCCCCCC(=O)NO)c4)n3)cc2)CC1 | 6.64

**Query** Provide only the value of recorded selectivity ratio for `CC(=O)Nc1ccc(-c2nc(Nc3ccc(OCCCCCC(=O)NO)cc3)ncc2C)cc1`
**Result** 6.07

###

target.entity: Protein deacetylase HDAC6 (Homo sapiens)
Sequence (Q9UBN7 whole entry): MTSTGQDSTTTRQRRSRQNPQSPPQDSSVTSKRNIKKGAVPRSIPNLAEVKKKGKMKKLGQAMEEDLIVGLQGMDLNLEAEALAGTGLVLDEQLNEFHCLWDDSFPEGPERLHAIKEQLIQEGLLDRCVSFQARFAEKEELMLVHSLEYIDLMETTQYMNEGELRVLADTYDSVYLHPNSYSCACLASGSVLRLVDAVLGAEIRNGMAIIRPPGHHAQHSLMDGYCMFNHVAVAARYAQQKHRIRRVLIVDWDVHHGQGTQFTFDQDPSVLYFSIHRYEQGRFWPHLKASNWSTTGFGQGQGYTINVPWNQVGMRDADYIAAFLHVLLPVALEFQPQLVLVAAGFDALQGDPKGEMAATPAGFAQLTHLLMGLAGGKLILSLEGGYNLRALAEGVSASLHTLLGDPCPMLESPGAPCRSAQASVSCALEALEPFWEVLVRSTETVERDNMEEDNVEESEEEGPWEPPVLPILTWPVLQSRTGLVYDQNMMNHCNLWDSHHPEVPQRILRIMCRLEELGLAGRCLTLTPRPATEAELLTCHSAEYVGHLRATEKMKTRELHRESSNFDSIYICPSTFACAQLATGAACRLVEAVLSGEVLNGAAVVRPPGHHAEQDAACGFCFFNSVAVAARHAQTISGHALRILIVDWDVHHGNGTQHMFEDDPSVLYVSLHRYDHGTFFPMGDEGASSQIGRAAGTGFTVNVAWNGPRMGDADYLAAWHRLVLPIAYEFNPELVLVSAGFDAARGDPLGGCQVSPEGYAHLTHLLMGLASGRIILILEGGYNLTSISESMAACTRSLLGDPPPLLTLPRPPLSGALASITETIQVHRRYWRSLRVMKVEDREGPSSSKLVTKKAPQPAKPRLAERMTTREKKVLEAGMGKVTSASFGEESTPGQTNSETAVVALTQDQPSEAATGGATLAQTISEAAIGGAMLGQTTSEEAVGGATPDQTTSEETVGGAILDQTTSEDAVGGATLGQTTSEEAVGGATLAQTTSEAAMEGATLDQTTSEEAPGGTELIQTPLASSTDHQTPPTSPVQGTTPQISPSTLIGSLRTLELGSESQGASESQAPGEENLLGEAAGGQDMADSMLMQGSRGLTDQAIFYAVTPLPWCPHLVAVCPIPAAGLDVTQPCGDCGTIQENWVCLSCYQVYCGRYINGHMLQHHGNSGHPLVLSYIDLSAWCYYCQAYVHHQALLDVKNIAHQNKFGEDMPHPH
pIC50: −log10 of the molar value.
Could you label it class 1 if measured pIC50 is 8 or higher, and class 0 otherwise?

A selection of reference data follows.
input.smiles | target.entity | group.label
Cc1cnc(Nc2ccc(N3CCOCC3)cc2)nc1-c1ccc(NC(=O)CCCCCCC(=O)NO)cc1 | Protein deacetylase HDAC6 (Homo sapiens) | class 1
CN1CCN(c2ccc(Nc3nccc(-c4ccc(NC(=O)CCCCCCC(=O)NO)cc4)n3)cc2)CC1 | Protein deacetylase HDAC6 (Homo sapiens) | class 1
CC(=O)Nc1ccc(-c2ccnc(Nc3ccc(NC(=O)CCCCC(=O)NO)cc3)n2)cc1 | Protein deacetylase HDAC6 (Homo sapiens) | class 0
CC(=O)Nc1ccc(-c2ccnc(Nc3ccc(OCCCCCCC(=O)NO)cc3)n2)cc1 | Protein deacetylase HDAC6 (Homo sapiens) | class 1
CC(=O)Nc1ccc(-c2ccnc(Nc3cccc(OCCCCCCC(=O)NO)c3)n2)cc1 | Protein deacetylase HDAC6 (Homo sapiens) | class 1

**Query** Is reported pIC50 greater than or equal to 8 here: `CC(=O)Nc1ccc(-c2nc(Nc3ccc(OCCCCCC(=O)NO)cc3)ncc2C)cc1`
**Result** class 1

**Query** Is reported pIC50 greater than or equal to 8 here: `CC(=O)Nc1ccc(-c2ccnc(Nc3ccc(NC(=O)CCCCCCC(=O)NO)cc3)n2)cc1`
**Result** class 1

**Query** Is reported pIC50 greater than or equal to 8 here: `COC(=O)CCCCCCOc1ccc(Nc2nccc(-c3ccc(NC(C)=O)cc3)n2)cc1`
**Result** class 0

**Query** Is reported pIC50 greater than or equal to 8 here: `O=C(CCCCCCC(=O)Nc1ccc(-c2ccnc(Nc3ccccc3)n2)cc1)NO`
**Result** class 1

**Query** Is reported pIC50 greater than or equal to 8 here: `O=C(CCCCCCC(=O)Nc1ccc(-c2ccnc(Nc3ccc(N4CCCCC4)cc3)n2)cc1)NO`
**Result** class 0
